Biological target: Glucose transporter (Leishmania mexicana)
Test: ST_JUDE_LEISH: Cytotoxicity at 2uM final concentration against transgenic Leishmania Mexicana promastigotes LmGT2 that are glucose transport deficient and complemented with the L. Mexicana glucose transporter 2. Activity is measured by DNA content using SYBR green in vitro
Assay type: functional
inhibition reference
Give the number; % is assumed, so skip it.

For orientation, consider the following solved cases.
compound	readout.units	inhibition
CCCN(Cc1nnc(-c2ccco2)o1)C(=O)C1CCN(c2ncc(C(F)(F)F)cc2Cl)CC1	%	10.8
CC(C)(C)c1ccc(-c2nc3c(ccc4nc(N)nc(N)c43)[nH]2)cc1	%	-2.76
O=C(/C=C/c1ccc(Cl)c(Cl)c1)NCCCCCCN1CCN(C(=O)Nc2ccc(Cl)c(C(F)(F)F)c2)CC1	%	-1.95
N#Cc1cc(C(=O)c2cc(Cl)ccc2O)cn(-c2cc(Cl)cc(Cl)c2)c1=O	%	2

Lab book: inhibition of COc1ccc(C(=O)CCC(=O)N(CCC2CCCN2C)Cc2ccc(-c3ccc(CNCCc4ccc(S(C)(=O)=O)cc4)cn3)cc2)cc1F (stereo not drawn) noted as 9.19

Lab note: measured inhibition of Cn1cnc(CCNC(=O)c2ccc(-c3cccc(-c4nc5cc(C(F)(F)F)ccc5[nH]4)c3)cc2)c1 was 5.89

Item: COc1ccc2nccc([C@@H](O)CN3CCC(NCc4cc5ccccc5nn4)CC3)c2c1 | inhibition: 7.16

COc1ccc(CN2CCC(N3CCc4cc(NC(=O)c5cc(C)on5)ccc43)C2)cc1Cl (stereo not drawn) has a reported inhibition of 0.69

* * *

Molecular target: Glucose transporter (Leishmania mexicana) (UniProt O61059)
Assay: ST_JUDE_LEISH: Cytotoxicity at 2uM final concentration against transgenic Leishmania Mexicana promastigotes LmGT2 that are glucose transport deficient and complemented with the L. Mexicana glucose transporter 2. Activity is measured by DNA content using SYBR green in vitro
Type: functional
metric: inhibition (%)
Express your answer in %, writing the number without its unit.

Worked cases, answers included:
compound	inhibition [%]
CCCC(=O)NC(c1ccc(C(C)C)cc1)c1ccc2cccnc2c1O (stereo unspecified)	0.65
CCc1c(C)nc(-n2nc(C)cc2NC(=O)CC(c2ccccc2)c2ccccc2)[nH]c1=O	-4.35
COc1ccc2nccc([C@@H](O)CN3CCC(NCCNc4cccc(F)c4)CC3)c2c1	0.95
CC(C)CNC(=O)c1ccc(-c2cccc(CN3CCC(N4CCCC4)CC3)c2)nc1	1.53
Cc1ccc2c(=NN=Cc3ccc(Cl)cc3)cc(C)[nH]c2c1	2.66
COc1cc(CN=C(S)NN=C(C)c2ccccn2)cc(OC)c1OC	2.59
O=C(C=Cc1ccc(Cl)c(Cl)c1)NCCCCCN1CCC(CCCNC(=O)C2CC2c2ccccc2)CC1 (stereo unspecified)	1.16
CC1CC(NCCCNc2cc(=O)c3ccccc3[nH]2)c2c(Cl)c(Cl)cc(Cl)c21 (stereo unspecified)	1.22

So, Cn1ncc2c3c(CCN4CCC(NCc5cc6c(cn5)OCC6)CC4)c(Cl)cnc3ccc21 ? Its inhibition was 0.05

Documented inhibition of O=C(NNC(=O)c1ccc(CN2CCC(c3nc4ccccc4[nH]3)CC2)cc1)Nc1ccc(Oc2ccccc2)cc1 : 1.36

Looking up O=S(=O)(NCCN1CCCC1)c1ccc(-c2ccc(CNC3Cc4ccccc4C3)cc2)s1 , I see its inhibition listed as 1.34

* * *

Biological target: Solute carrier family 2, facilitated glucose transporter member 1 (Homo sapiens) (UniProt P11166)
Sequence (P11166 whole entry): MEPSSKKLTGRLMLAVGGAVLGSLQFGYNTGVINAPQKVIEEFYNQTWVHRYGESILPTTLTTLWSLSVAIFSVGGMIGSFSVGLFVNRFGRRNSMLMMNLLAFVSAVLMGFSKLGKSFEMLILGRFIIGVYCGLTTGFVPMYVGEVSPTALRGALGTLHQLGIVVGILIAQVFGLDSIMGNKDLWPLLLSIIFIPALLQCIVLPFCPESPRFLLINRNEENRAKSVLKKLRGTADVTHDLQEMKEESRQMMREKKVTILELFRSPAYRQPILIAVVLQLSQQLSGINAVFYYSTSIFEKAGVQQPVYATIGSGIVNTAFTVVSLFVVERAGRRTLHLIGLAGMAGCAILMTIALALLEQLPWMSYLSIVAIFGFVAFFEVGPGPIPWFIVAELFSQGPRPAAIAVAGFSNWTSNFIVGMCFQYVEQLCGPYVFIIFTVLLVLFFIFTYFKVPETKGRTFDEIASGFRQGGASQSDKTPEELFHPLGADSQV
Experiment: ST_JUDE_LEISH: Cytotoxicity at 2uM final concentration against transgenic Leishmania Mexicana promastigotes LmGLUT1 that are glucose transport deficient and complemented with the human glucose transporter GLUT1. Activity is measured by DNA content using SYBR green in vitro
Type: functional
metric: inhibition (%)
Give just the number in %; leave the unit off.

CCOC(=O)c1cc(C(=O)NCCCCN2CCC(c3ccc(CC)cc3OCC)CC2)ccc1-c1ccc(C(F)(F)F)cc1 yielded inhibition of 10.1

Reported inhibition ( Fc1cccc(COc2ccc(-n3ccc4c(NCCCn5ccnc5)ncnc43)cc2Cl)n1 ) = 1.74

Sure, the documented inhibition for COc1ccc(CCNCCCCCCNCCc2ccc(Cl)cc2)c(Cl)c1OC is 73.4

The value of inhibition measured for the compound CC(Cc1ccc(CN(CC(N)=O)Cc2ccc(CC(C)NCCc3cccc(Cl)c3)cc2)cc1)NCCc1cccc(Cl)c1 (stereo not given) turned out to be 3.67

Measured inhibition of c1ccc(CN2CCN(CCNc3c4ccccc4nc4ccccc34)CC2)cc1 : 13.5

So, COc1cccc(C2CCN(CCN3CCC(NC(=O)c4ccc(-c5ccc(C(F)(F)F)cc5)cc4)CC3)CC2)c1 ? Its inhibition was 4.19

Summary for this compound, CN(C(=O)c1cc2c(-c3cncnc3)cccc2[nH]1)c1ccccc1 : inhibition is 2.07

Per the record, Cc1cc(C)c(C)c(S(=O)(=O)N2CCCCC(c3ccc(F)c(F)c3)=N2)c1C has inhibition of 2.94

* * *

Target: Glucose transporter (Leishmania mexicana) (UniProt O61059)
Experiment: ST_JUDE_LEISH: Cytotoxicity at 2uM final concentration against transgenic Leishmania Mexicana promastigotes LmGT2 that are glucose transport deficient and complemented with the L. Mexicana glucose transporter 2. Activity is measured by DNA content using SYBR green in vitro
Format: functional
inhibition reference
Note: unit % is implicit; provide only the numeric part.

test.smiles	metric	quantitative.result
O=C(N[C@H]1CCN(CCc2ccc(O[C@H]3CCNC3)cc2)C1)c1ccc(Cl)c(Cl)c1	inhibition	14.5
COc1ccccc1CNc1ccnc(N2CC(Oc3ccc(F)cc3)C2)n1	inhibition	-2.53
CC(=O)c1c(CC(=O)O)c2ccccc2n1O	inhibition	3.07

Record Cc1cccc(C)c1OC(=O)CSc1nnc(-c2ccccc2O)o1 . Reported inhibition: 1.28

# inhibition of COc1ccc2nccc(N3CCC(CCNCc4cc5c(cn4)OCCO5)CC3)c2n1 = 1.72

Per the records, this molecule ( CO/C(=C\C=C\c1cc2cc(Cl)c(Cl)cc2[nH]1)C(=O)NCCCN1CCN(c2cccc(CCCO)c2)CC1 ) has inhibition equal to 5.89

* * *

Biological target: Glucose transporter (Leishmania mexicana) (UniProt O61059)
Assay: ST_JUDE_LEISH: Cytotoxicity at 2uM final concentration against transgenic Leishmania Mexicana promastigotes LmGT2 that are glucose transport deficient and complemented with the L. Mexicana glucose transporter 2. Activity is measured by DNA content using SYBR green in vitro
Assay type: functional
metric: inhibition
Note: a bare number is incomplete; add the unit.

molecule	target.or.test.system	inhibition
COc1ccc(NC(=O)[C@H](Cc2ccccc2)Nc2cc(C)nc(NCCc3ccc(F)cc3)n2)cc1	Glucose transporter (Leishmania mexicana) (UniProt O61059)	10%
Cc1cc(NCc2ccccc2)nc2cc(O)ccc12	Glucose transporter (Leishmania mexicana) (UniProt O61059)	7.14%
COc1ccc2[nH]ccc(=NN=Cc3cccc(Cl)c3)c2c1	Glucose transporter (Leishmania mexicana) (UniProt O61059)	11.7%
CCNc1cc(C(=O)N[C@@H](Cc2ccccc2)[C@H](O)CNC2(CC)CC2)cc(N2CCCCS2(=O)=O)c1	Glucose transporter (Leishmania mexicana) (UniProt O61059)	-2.45%
FC(F)(F)c1ccc2[nH]c(-c3ccc(-c4ccc(CNCCN5CCNCC5)cc4)s3)nc2c1	Glucose transporter (Leishmania mexicana) (UniProt O61059)	9.03%
CC(C)NCc1ccc(-c2ccc(CN3CCCC(c4ccccc4)C3)cc2)c(C(=O)NC2Cc3ccccc3C2)c1 (stereo not given)	Glucose transporter (Leishmania mexicana) (UniProt O61059)	11%
COc1ccc(CNCc2ccc(-c3cccc(-c4nc5cccc(C)c5[nH]4)c3)cc2)cc1	Glucose transporter (Leishmania mexicana) (UniProt O61059)	0.41%
O=C(/C=C/c1ccc(Cl)c(Cl)c1)NC1CCC(CN2CCC(c3nc4ccccc4s3)CC2)CC1 (stereo not given)	Glucose transporter (Leishmania mexicana) (UniProt O61059)	-1.65%
O=C(NCC1CCN(C/C=C/c2ccccc2)CC1)Nc1ccc(Oc2ccccc2)cc1	Glucose transporter (Leishmania mexicana) (UniProt O61059)	2.71%

The molecule identified as CN1CCN(Cc2cccc(-c3ccc4c(Nc5ccc(F)cc5Cl)ccnc4c3)c2)CC1 registered its inhibition at 3.82%

* * *

Biological target: Glucose transporter (Leishmania mexicana) (UniProt O61059)
Test: ST_JUDE_LEISH: Cytotoxicity at 2uM final concentration against transgenic Leishmania Mexicana promastigotes LmGT2 that are glucose transport deficient and complemented with the L. Mexicana glucose transporter 2. Activity is measured by DNA content using SYBR green in vitro
Type: functional
metric: inhibition (%)
Field: numeric (%). Do not append units.

Take a look at these entries with their results.
test.smiles	inhibition / %
CN(C)CCN(C)Cc1ccc(-c2ccc(NC(=O)c3cccc(C#N)c3)cc2)cc1	0.19
Cc1cc(N2CCCC2)nc(Nc2ccc(NC(=O)c3ccc(Br)o3)cc2)n1	5.64

Then there is this molecule:
Record N=C(N)NN=CC(=O)Nc1ccc(Cl)c(Cl)c1 has Glucose transporter (Leishmania mexicana) (UniProt O61059) inhibition equal to -1.96
